Below, each of the molecules is paired with its reported EC50 value.
System: LPS-induced TNFα in monocytes
assayInfo: Monocytes assay: LPS-triggered TNFα (ELISA)
Format: cell-based, human
assaySetup: Homo sapiens, Monocyte, LPS-triggered TNFα inhibition

-- ask Tell me its EC50 given COc1cc(-c2cnc3cc(C4CCOCC4)c(OCCO)cn23)cc(OC(F)F)c1C(=O)NC1CC1 as the entry.
-- reply 1000 to 5000 nM

-- ask Tell me its EC50 given COc1cc(-c2cnc3cc(C(C)(O)Cn4ccnc4)ccn23)cc(OC(F)F)c1C(=O)NC1CC1 (stereo not shown) as the entry.
-- reply 1000 to 5000 nM

New cases:
-- ask Tell me its EC50 given COc1cc(-c2cnc3cc([C@@](C)(O)C4CC4)ccn23)cc(OC(F)F)c1C(=O)NC1CC1 (single isomer, unassigned) as the entry.
-- reply 100 to 1000 nM

-- ask Tell me its EC50 given COc1cc(-c2cnc3cc(C(C)(C#N)CO)ccn23)cc(OC(F)F)c1C(=O)NC1CC1 (stereo not shown) as the entry.
-- reply 100 to 1000 nM

-- ask Tell me its EC50 given COc1cc(-c2cnc3cc(C(C)(C)O)ccn23)cc(OC(F)F)c1C(=O)N[C@@H]1C[C@@H]1F as the entry.
-- reply 100 to 1000 nM

###

Below, each of the molecules is paired with its reported IC50 value.
systemName: SIK3 (Homo sapiens, UniProt Q9Y2K2)
Construct: purchased SignalChem S12-11G-100
Sequence (Q9Y2K2 59-365 limits assumed): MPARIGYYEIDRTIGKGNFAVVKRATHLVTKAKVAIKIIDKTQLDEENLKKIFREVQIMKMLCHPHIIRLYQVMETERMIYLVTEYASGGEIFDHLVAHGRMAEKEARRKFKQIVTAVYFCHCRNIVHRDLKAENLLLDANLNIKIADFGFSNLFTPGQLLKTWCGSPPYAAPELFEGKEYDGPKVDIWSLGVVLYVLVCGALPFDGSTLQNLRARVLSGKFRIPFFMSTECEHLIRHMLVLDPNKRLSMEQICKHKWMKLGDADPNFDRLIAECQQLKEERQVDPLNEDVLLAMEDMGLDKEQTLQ
assayInfo: ADP-Glo kinase assay, SIK3
Assay type: biochemical

-- ask Answer with IC50 of COc1cc(-c2cnc3cc(C(C)N4CCO[C@H](CO)C4)ccn23)cc(OC(F)F)c1C(=O)NC1CC1 (stereo partly drawn) measured for SIK3 (Homo sapiens, UniProt Q9Y2K2).
-- reply 10 to 100 nM

-- ask Answer with IC50 of COc1cc(-c2cnc3cc(C(C)(C)C#N)ccn23)cc(OC(F)F)c1C(=O)N1CC(F)C1 measured for SIK3 (Homo sapiens, UniProt Q9Y2K2).
-- reply 0.01 to 10 nM

-- ask Answer with IC50 of COc1cc(-c2cnc3cc(C4CCCN(C)C4)ccn23)cc(OC)c1C(=O)NCC(F)(F)F (stereo not drawn) measured for SIK3 (Homo sapiens, UniProt Q9Y2K2).
-- reply 10 to 100 nM

New cases:
-- ask Answer with IC50 of COc1cc(-c2cnc3cc(C(C)N4CC(O)C4)ccn23)cc(OC(F)F)c1C(=O)NC1CC1 (stereo not drawn) measured for SIK3 (Homo sapiens, UniProt Q9Y2K2).
-- reply 10 to 100 nM

-- ask Answer with IC50 of COc1cc(-c2cnn3cc(C4CCOCC4)cnc23)cc(OC(F)F)c1C(=O)NC1CC1 measured for SIK3 (Homo sapiens, UniProt Q9Y2K2).
-- reply 0.01 to 10 nM

-- ask Answer with IC50 of COc1cc(-c2cnc3cc(C(C)O)ccn23)cc(OC(F)F)c1C(=O)NC1CC1 (stereo not drawn) measured for SIK3 (Homo sapiens, UniProt Q9Y2K2).
-- reply 10 to 100 nM

-- ask Answer with IC50 of COc1cc(-c2cnc3cc(C(C)(O)C(C)C)ccn23)cc(OC(F)F)c1C(=O)NC1CC1 (stereo not drawn) measured for SIK3 (Homo sapiens, UniProt Q9Y2K2).
-- reply 10 to 100 nM

-- ask Answer with IC50 of COc1cc(-c2cnc3cc(C(C)(O)CN(C)CCO)ccn23)cc(OC(F)F)c1C(=O)NC1CC1 (stereo not drawn) measured for SIK3 (Homo sapiens, UniProt Q9Y2K2).
-- reply 10 to 100 nM

-- ask Answer with IC50 of COc1cc(-c2cnc3cc(C(C)(C)C#N)ccn23)cc(OC(F)F)c1C(=O)NC1COC1 measured for SIK3 (Homo sapiens, UniProt Q9Y2K2).
-- reply 10 to 100 nM

-- ask Answer with IC50 of COc1cc(-c2cnc3cc(C4(C(=O)N5CC(O)C5)CC4)ccn23)cc(OC(F)F)c1C(=O)NC1CC1 measured for SIK3 (Homo sapiens, UniProt Q9Y2K2).
-- reply 10 to 100 nM

-- ask Answer with IC50 of COc1cc(-c2cnc3cc(C4CCOCC4)c(OCCO)cn23)cc(OC(F)F)c1C(=O)NC1CC1 measured for SIK3 (Homo sapiens, UniProt Q9Y2K2).
-- reply 10 to 100 nM

-- ask Answer with IC50 of COc1cc(-c2cnc3cc(C4(OC)COC4)ccn23)cc(OC(F)F)c1C(=O)NC1CC1 measured for SIK3 (Homo sapiens, UniProt Q9Y2K2).
-- reply 10 to 100 nM

###

Below, each of the molecules is paired with its reported IC50 value.
systemName: SIK2 (Homo sapiens, UniProt Q9H0K1)
Construct: purchased ThermoFisher Scientific PV4792
Sequence (Q9H0K1 whole entry): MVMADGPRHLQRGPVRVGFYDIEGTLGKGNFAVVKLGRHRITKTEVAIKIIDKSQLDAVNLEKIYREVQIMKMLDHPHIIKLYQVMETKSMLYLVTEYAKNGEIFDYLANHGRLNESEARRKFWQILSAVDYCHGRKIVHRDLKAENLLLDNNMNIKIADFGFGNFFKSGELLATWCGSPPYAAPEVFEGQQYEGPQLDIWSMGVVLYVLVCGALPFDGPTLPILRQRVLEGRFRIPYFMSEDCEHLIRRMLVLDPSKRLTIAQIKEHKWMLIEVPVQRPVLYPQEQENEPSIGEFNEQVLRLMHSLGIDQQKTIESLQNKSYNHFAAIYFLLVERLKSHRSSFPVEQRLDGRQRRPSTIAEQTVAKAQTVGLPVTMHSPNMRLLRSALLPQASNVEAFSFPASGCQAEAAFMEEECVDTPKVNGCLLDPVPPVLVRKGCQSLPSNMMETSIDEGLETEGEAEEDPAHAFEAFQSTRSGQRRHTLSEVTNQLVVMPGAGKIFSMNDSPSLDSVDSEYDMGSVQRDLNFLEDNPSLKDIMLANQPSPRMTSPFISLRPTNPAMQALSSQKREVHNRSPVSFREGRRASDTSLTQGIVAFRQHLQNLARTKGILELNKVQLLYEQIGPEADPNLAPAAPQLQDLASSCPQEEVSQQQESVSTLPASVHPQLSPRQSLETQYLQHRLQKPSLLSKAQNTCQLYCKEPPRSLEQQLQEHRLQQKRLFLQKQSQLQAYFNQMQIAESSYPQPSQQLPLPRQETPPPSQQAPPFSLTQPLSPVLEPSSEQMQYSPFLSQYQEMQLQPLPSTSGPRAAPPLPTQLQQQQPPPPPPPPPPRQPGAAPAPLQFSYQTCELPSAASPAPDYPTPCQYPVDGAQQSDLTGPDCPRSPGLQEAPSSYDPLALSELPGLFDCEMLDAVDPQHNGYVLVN
assayInfo: ADP-Glo kinase assay, SIK2
Type: biochemical

Use the examples below as a reference point.
-- ask Tell me its IC50 given COc1cc(-c2cnc3cc(C(C)(C)C#N)ccn23)cc(OC(F)F)c1C(=O)NCC(C)C [Cpd 72] as the entry.
-- reply > 500 nM

-- ask Tell me its IC50 given COc1cc(-c2cnc3cc(C(C)(C)N)ccn23)cc(OC)c1C(=O)NCC(F)(F)F [Cpd 55] as the entry.
-- reply > 500 nM

-- ask Tell me its IC50 given CCN(C)C(=O)c1c(OC)cc(-c2cnc3cc(C(C)(C)C#N)ccn23)cc1OC(F)F [Cpd 40] as the entry.
-- reply > 500 nM

-- ask Tell me its IC50 given COc1cc(-c2cnc3cc(C(C)(C)C#N)ccn23)cc(OC(F)F)c1C(=O)N1CCC(F)(F)C1 [Cpd 47] as the entry.
-- reply > 500 nM

New cases:
-- ask Tell me its IC50 given COc1cc(-c2cnc3cc(C(C)(C)C#N)ccn23)cc(OC(F)F)c1C(=O)N1CC2(CN(C)C2)C1 [Cpd 99] as the entry.
-- reply > 500 nM

###

systemName: SIK2 (Homo sapiens, UniProt Q9H0K1)
Construct: purchased ThermoFisher Scientific PV4792
assayInfo: ADP-Glo kinase assay, SIK2
Type: biochemical
resultType: IC50

Use the examples below as a reference point.
-- ask Tell me its IC50 given COc1cc(-c2cnc3cc(C(C)(C)C4CCO4)ccn23)cc(OC(F)F)c1C(=O)NC1CC1 (stereo not shown) as the entry.
-- reply > 500 nM

-- ask Tell me its IC50 given COc1cc(-c2cnc3cc(C(C)(C)C#N)cnn23)cc(OC(F)F)c1C(=O)N[C@@H]1C[C@@H]1F as the entry.
-- reply 100 to 500 nM

-- ask Tell me its IC50 given COc1cc(-c2cnc3cc(C(C)(C)C#N)ccn23)cc(OC(F)F)c1C(=O)NC(C)C(F)F (stereo not shown) as the entry.
-- reply > 500 nM

Attention now turns to another entry.
-- ask Tell me its IC50 given COc1cc(-c2cnn3cc(C(C)(C)CO)ccc23)cc(OC(F)F)c1C(=O)NC1CC1 as the entry.
-- reply > 500 nM

###

systemName: SIK2 (Homo sapiens, UniProt Q9H0K1)
Construct: purchased ThermoFisher Scientific PV4792
assayInfo: ADP-Glo kinase assay, SIK2
Format: biochemical
Below, each of the compounds is paired with its reported IC50 value.

-- ask Tell me its IC50 given COc1cc(-c2cnc3cc(C(C)(O)CN4CC(F)(F)C4)ccn23)cc(OC(F)F)c1C(=O)NC1CC1 (stereo not drawn) as the entry.
-- reply > 500 nM

-- ask Tell me its IC50 given COc1cc(-c2cnc3cc(C(C)(C)C#N)ccn23)cc(OC(F)F)c1C(=O)N1CC(N)C1 as the entry.
-- reply > 500 nM

-- ask Tell me its IC50 given CCNC(=O)C(C)(C)c1ccc2c(-c3cc(OC)c(C(=O)NC4CC4)c(OC(F)F)c3)cnn2c1 as the entry.
-- reply > 500 nM

###

systemName: SIK1 (Homo sapiens)
Construct: purchased Carna Biosciences 02-131
Sequence (P57059 whole entry): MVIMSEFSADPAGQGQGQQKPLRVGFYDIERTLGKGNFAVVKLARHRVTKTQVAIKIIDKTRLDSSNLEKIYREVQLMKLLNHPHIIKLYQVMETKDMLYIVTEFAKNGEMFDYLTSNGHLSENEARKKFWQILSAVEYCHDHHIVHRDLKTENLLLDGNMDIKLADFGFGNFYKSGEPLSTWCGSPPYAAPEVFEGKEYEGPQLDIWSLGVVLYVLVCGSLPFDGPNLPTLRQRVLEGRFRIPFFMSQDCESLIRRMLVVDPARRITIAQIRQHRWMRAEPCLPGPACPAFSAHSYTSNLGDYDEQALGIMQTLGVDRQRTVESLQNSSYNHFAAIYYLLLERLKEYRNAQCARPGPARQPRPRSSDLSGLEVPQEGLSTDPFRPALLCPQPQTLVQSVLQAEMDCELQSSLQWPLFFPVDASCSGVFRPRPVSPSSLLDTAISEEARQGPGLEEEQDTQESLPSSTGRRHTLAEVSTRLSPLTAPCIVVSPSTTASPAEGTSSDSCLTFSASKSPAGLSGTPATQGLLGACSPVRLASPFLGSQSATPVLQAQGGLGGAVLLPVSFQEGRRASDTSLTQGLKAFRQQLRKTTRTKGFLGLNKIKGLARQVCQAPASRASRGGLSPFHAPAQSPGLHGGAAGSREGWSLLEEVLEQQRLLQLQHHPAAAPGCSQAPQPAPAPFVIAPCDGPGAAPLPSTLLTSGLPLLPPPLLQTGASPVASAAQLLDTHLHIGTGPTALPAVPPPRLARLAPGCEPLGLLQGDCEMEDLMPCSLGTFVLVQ
assayInfo: ADP-Glo kinase assay, SIK1
Format: biochemical
Below, each of the compounds is paired with its reported IC50 value.

Use the examples below as a reference point.
-- ask Tell me its IC50 given COc1cc(-c2cnc3cc(C(C)(O)CN(C)CCO)ccn23)cc(OC(F)F)c1C(=O)NC1CC1 (centres unmarked) [Cpd 209] as the entry.
-- reply > 0.5 µM

-- ask Tell me its IC50 given COCC1(NC(=O)c2c(OC)cc(-c3cnc4cc(C(C)(C)C#N)ccn34)cc2OC(F)F)CC1 [Cpd 81] as the entry.
-- reply > 0.5 µM

-- ask Tell me its IC50 given COc1cc(-c2cnc3cc(C(O)CC#N)ccn23)cc(OC(F)F)c1C(=O)NC1CC1 (centres unmarked) [Cpd 175] as the entry.
-- reply > 0.5 µM

New cases:
-- ask Tell me its IC50 given COc1cc(-c2cnn3cc(C4CCOCC4)cnc23)cc(OC(F)F)c1C(=O)NC1CC1 [Cpd 95] as the entry.
-- reply > 0.5 µM

-- ask Tell me its IC50 given COc1cc(-c2cnc3cc(C4CCCNC4)ccn23)cc(OC)c1C(=O)NCC(F)(F)F (centres unmarked) [Cpd 23] as the entry.
-- reply > 0.5 µM

-- ask Tell me its IC50 given CNC(=O)COCC(C)(C)c1ccc2c(-c3cc(OC)c(C(=O)N[C@@H]4C[C@@H]4F)c(OC(F)F)c3)cnn2c1 [Cpd 253] as the entry.
-- reply > 0.5 µM

-- ask Tell me its IC50 given COc1cc(-c2cnc3cc(C(C)(C)C#N)ccn23)cc(OC(F)F)c1C(=O)N1CC(O)(C(F)(F)F)C1 [Cpd 75] as the entry.
-- reply > 0.5 µM

-- ask Tell me its IC50 given COc1cc(-c2cnc3cc(C4(F)COC4)ccn23)cc(OC(F)F)c1C(=O)N[C@@H]1C[C@@H]1F [Cpd 224] as the entry.
-- reply 0.1 to 0.5 µM

-- ask Tell me its IC50 given COc1cc(-c2cnc3cc(C4(Cl)COC4)ccn23)cc(OC(F)F)c1C(=O)NC1CC1 [Cpd 217] as the entry.
-- reply > 0.5 µM

-- ask Tell me its IC50 given COc1cc(-c2cnc3cc(C4COC4)ccn23)cc(OC(F)F)c1C(=O)N[C@@H]1C[C@@H]1F [Cpd 206] as the entry.
-- reply 0.1 to 0.5 µM

-- ask Tell me its IC50 given COc1cc(-c2cnc3cc(C4(CO)CC4)ccn23)cc(OC(F)F)c1C(=O)NC1CC1 [Cpd 115] as the entry.
-- reply 0.1 to 0.5 µM

-- ask Tell me its IC50 given CCC(C)(C#N)c1ccn2c(-c3cc(OC)c(C(=O)NC4CC4)c(OC(F)F)c3)cnc2c1 (centres unmarked) [Cpd 27] as the entry.
-- reply > 0.5 µM

-- ask Tell me its IC50 given COc1cc(-c2cnc3cc(C(C)(C)C#N)ccn23)cc(OC(F)F)c1C(=O)NCC1CCC1 [Cpd 90] as the entry.
-- reply > 0.5 µM

-- ask Tell me its IC50 given COc1cc(-c2cnc3cc(C4CCOCC4)ncn23)cc(OC(F)F)c1C(=O)NC1CC1 [Cpd 109] as the entry.
-- reply > 0.5 µM

-- ask Tell me its IC50 given COc1cc(-c2cnc3cc(C(C)(C)C(C)=O)ccn23)cc(OC)c1C(=O)NCC(F)(F)F [Cpd 56] as the entry.
-- reply > 0.5 µM

-- ask Tell me its IC50 given CCC1(NC(=O)c2c(OC)cc(-c3cnc4cc(C(C)(C)C#N)ccn34)cc2OC(F)F)CC1 [Cpd 83] as the entry.
-- reply > 0.5 µM
